Readings of Kd for the listed binders
- Assayed System: T1, human transglutaminase type 2 (TG2) (human, UniProt P21980 1-687)
- T1 construct: Recombinant full-length human TG2 (Zedira; cat; T002 in the Biacore work); Also used here for the endogenous TG2 of HepG2 lysate and HK-2 cells; also called hTG2; rhTG2
- T1 sequence: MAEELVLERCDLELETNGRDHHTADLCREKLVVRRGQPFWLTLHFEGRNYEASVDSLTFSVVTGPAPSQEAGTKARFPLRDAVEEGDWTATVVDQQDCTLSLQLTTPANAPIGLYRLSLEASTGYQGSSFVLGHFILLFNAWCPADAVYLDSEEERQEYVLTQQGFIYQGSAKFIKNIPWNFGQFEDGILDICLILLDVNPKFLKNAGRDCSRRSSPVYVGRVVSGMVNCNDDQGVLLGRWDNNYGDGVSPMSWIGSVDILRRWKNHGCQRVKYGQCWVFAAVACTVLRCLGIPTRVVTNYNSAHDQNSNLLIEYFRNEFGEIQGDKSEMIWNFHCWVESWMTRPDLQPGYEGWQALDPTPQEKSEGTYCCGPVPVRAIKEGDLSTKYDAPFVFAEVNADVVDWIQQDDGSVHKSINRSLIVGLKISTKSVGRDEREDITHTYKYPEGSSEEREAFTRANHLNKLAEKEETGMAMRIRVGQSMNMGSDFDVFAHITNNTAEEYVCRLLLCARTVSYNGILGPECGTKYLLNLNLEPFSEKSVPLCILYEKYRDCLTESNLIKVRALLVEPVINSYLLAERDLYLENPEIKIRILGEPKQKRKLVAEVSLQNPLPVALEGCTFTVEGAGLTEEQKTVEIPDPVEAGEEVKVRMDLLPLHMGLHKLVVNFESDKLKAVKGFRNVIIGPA
- Test Description: SPR (Biacore T200), antibody captured on anti-human IgG1 Fc chip, TG2 injected; calcium condition not marked in the row
- Protocol: Recombinant cynomolgus monkey TG2 was obtained from Trenzyme. Surface plasmon resonance (SPR) was measured on a Biacore T200 instrument (GE Healthcare). […] The method employed to determine the affinity of the anti-TG2 antibodies involved the capture of the chimeric or humanised antibodies on a MAH coated CM5 chip, followed by the injection of a series of TG2 samples in running buffer. […] Dissociation of TG2 was typically measured for up to 5400 seconds (1.5 hours). […]
Experimental Endpoint: Kd

{"columns": ["Binder", "Observed Value"],
 "data": [
  ["hAB004 (hAB001AE) humanised AB1 antibody (antibody, V domains shown, they were captured by anti-human IgG1 (Fc); also called Heavy Chain version RHA with Light Chain version RKE) VH: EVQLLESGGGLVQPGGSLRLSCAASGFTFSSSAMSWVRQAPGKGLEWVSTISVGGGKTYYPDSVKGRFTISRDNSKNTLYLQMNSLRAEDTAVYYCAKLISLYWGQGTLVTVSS VL: EIVLTQSPSSLSASVGDRVTITCKASQDINSYLTWYQQKPGKAPKLLIYRTNRLFDGVPSRFSGSGSGTDFFFTISSLQPEDFGTYYCLQYDDFPYTFGGGTKLEIK", "0.12 nM"],
  ["hAB005 (hAB001AJ) humanised AB1 antibody (antibody, V domains shown, captured by anti-human IgG1 (Fc); also called Heavy Chain version RHA with Light Chain version RKJ) VH: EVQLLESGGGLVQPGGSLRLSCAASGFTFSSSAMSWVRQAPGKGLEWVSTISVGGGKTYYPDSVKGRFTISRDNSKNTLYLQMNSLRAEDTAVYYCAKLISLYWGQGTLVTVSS VL: DIQMTQSPSSLSASVGDRVTITCKASQDINSYLTWFQQKPGKAPKSLIYRTNRLFDGVPSRFSGSGSGTDFFLTISSLQPEDFATYYCLQYDDFPYTFGQGTKVEIK", "< 0.05 nM"],
  ["hBB001BB humanised BB7 antibody (antibody, V domains shown, BB is read as heavy chain hBB001HB (BB7_RHB) with kappa chain hBB001KB (BB7_RKB)) VH: EVQLLESGGGLVQPGGSLRLSCAASGIIFSSSAMSWVRQAPGKGLEWVATISSGGRSTYYPDSVKGRFTVSRDSSKNTLYLQMNSLRAEDTAVYYCAKLISPYWGQGTLVTVSS VL: DIKMTQSPSSLSASVGDRVTITCKASQDINSYLTWFQQKPGKAPKTLIYLTNRLMDGVPSRFSGSGSGQEFLLTISSLQPEDFATYYCLQYVDFPYTFGQGTKVEIK", "< 0.04 nM"],
  ["cDC001 chimeric antibody (murine DC1 variable regions) (antibody, human IgG1, V domains shown, also called Chimeric DC1) VH: EVQLVESGGGLVKPGGSLKLSCAASGFTLSTHAMSWVRQTPEKRLEWVATISSGGRSTYYPDSVKGRFTISRDNVKNTLYLQLSSLRSEDTAVYFCARLISTYWGQGTTLTVSS VL: DITMTQSPSSIYASLGERVTITCKASQDINSYLTWFQQKPGKSPKILIYLVNRLVDGVPSRFSGSGSGQDYALTISSLEYEDMGIYYCLQYDDFPYTFGGGTKLEIK", "< 0.03 nM"]
]}
